# study-system: Calcium/calmodulin-dependent protein kinase type IV (Homo sapiens);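 also: each value is the mean of the measured CAMK4 inhibition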
# test-settings: at 1 µM
property-measured: inhibition (%)
State the answer as a number, implicitly in %.

1. Cc1cccc2c1NC(=O)/C2=N\Nc1ccc(S(N)(=O)=O)cc1 : 1.1
2. COc1cccc(-c2c[nH]c3c(N/N=C/c4ccncc4)ncnc23)c1 : 4.18
3. COc1cc2c(cc1Nc1nc(Nc3ccsc3C(N)=O)c3cc[nH]c3n1)N(C(=O)CN(C)C)CCC2(C)C : 19.9
4. CCN1CCC(CC(=O)Nc2n[nH]c3nnc(-c4cccc(F)c4F)cc23)CC1 : -0.58
5. CN(C)CCOc1ccc(-c2nc(-c3ccncc3)c(-c3ccc4c(c3)CC/C4=N\O)[nH]2)cc1 : -0.88
6. CCn1c(-c2nonc2N)nc2c(C#CC(C)(C)O)nc(OC[C@H](N)c3ccccc3)cc21 : 4.09
7. c1ccc(-c2nc3n(c2-c2ccc4c(c2)OCO4)CCC3)nc1 : -0.72

Query: I would be grateful if you could share the reported inhibition for O=C(Nc1n[nH]c2cc(-c3ccc(F)cc3)ccc12)C1CC1 .
Reply: 1.07

Numbers sourced from ChEMBL document CHEMBL1961873.
